Reference source for all entries: patent US10584115B2

# reported melting point; entries follow
measure: melting point

[[record]]
smiles_record = "Fc1cc(Nc2cncc(-n3c(C(F)F)nc4ccccc43)n2)ccc1OC(F)F"
value = "220 to 222 °C"

[[record]]
smiles_record = "Cc1nc2ccc(F)cn2c1-c1cc(N)cc(Nc2ccc(C(F)(F)F)cc2)n1"
value = "161 to 163 °C"

[[record]]
smiles_record = "Fc1ccc2nc(C(F)F)n(-c3cncc(Nc4ccc(C(F)(F)F)cc4)n3)c2c1"
value = "197 to 199 °C"

[[record]]
smiles_record = "COc1cccc(Nc2cc(C#N)cc(-c3c(C)nc4ccc(F)cn34)n2)c1"
value = "247 to 250 °C"


###

# melting point listing for each entry below
measure: melting point

[[record]]
smiles_record = "Cc1nc2c(F)cc(F)cn2c1-c1cc(C#N)cc(Nc2ccc(OC(F)(F)F)cc2)n1"
measure = "melting point"
value = "213 to 216 °C"

[[record]]
smiles_record = "Cc1ccc(Nc2cc(C#N)cc(-c3c(C)nc4ccc(F)cn34)n2)cc1"
measure = "melting point"
value = "185 to 188 °C"

[[record]]
smiles_record = "CC(=O)n1nc(C)c(-c2cncc(Nc3ccc(C(F)(F)F)cc3)n2)c1C"
measure = "melting point"
value = "199 to 200 °C"

[[record]]
smiles_record = "Cc1nc2ccc(F)cc2n1-c1cncc(Nc2ccc(OC(F)F)cc2)n1"
measure = "melting point"
value = "200 to 202 °C"

[[record]]
smiles_record = "Cc1nn(C)c(C)c1-c1cncc(Nc2ccc(C(F)(F)F)cc2)n1"
measure = "melting point"
value = "201 to 202 °C"

[[record]]
smiles_record = "FC(F)(F)Oc1ccc(Nc2cncc(-c3cccc4nc(C5CC5)cn34)n2)cc1"
measure = "melting point"
value = "225 to 227 °C"

[[record]]
smiles_record = "Cc1nc2ccc(F)cc2n1-c1cc(C#N)cc(Nc2ccc(OC(F)F)cc2)n1"
measure = "melting point"
value = "231 to 232 °C"

[[record]]
smiles_record = "FC(F)c1nc2ccccc2n1-c1cncc(Nc2ccc(C(F)(F)F)cc2)n1"
measure = "melting point"
value = "229 to 231 °C"

[[record]]
smiles_record = "CCc1nn(C)c(CC)c1-c1cncc(Nc2ccc(OC(F)(F)F)cc2)n1"
measure = "melting point"
value = "122 to 123 °C"

[[record]]
smiles_record = "Cc1nn(CCn2ncnn2)c(C)c1-c1cncc(Nc2ccc(C(F)(F)F)cc2)n1"
measure = "melting point"
value = "138 to 139 °C"

[[record]]
smiles_record = "N#Cc1cc(Nc2ccc(C(F)(F)F)cc2)nc(-n2c(C(F)F)nc3ccccc32)c1"
measure = "melting point"
value = "225 to 227 °C"

[[record]]
smiles_record = "Cc1nc2cc(F)c(F)cc2n1-c1cncc(Nc2ccc(C(F)F)cc2)n1"
measure = "melting point"
value = "209 to 211 °C"

[[record]]
smiles_record = "Nc1cc(Nc2ccc(OC(F)F)cc2)nc(-c2c(C3CC3)nc3ccc(F)cn23)c1"
measure = "melting point"
value = "185 to 186 °C"

[[record]]
smiles_record = "Cc1nc2ccc(F)cn2c1-c1cc(N)cc(Nc2ccc(OC(F)F)c(F)c2)n1"
measure = "melting point"
value = "182 to 183 °C"

[[record]]
smiles_record = "COc1ccc(Nc2cncc(-n3c(C)nc4ccc(F)cc43)n2)cc1"
measure = "melting point"
value = "184 to 186 °C"

[[record]]
smiles_record = "FC(F)(F)c1nc2ccccn2c1-c1cncc(Nc2ccc(C3CC3)cc2)n1"
measure = "melting point"
value = "317 to 320 °C"

[[record]]
smiles_record = "Fc1ccc2nc(C3CC3)n(-c3cncc(Nc4ccc(C(F)(F)F)cc4)n3)c2c1"
measure = "melting point"
value = "263 to 265 °C"

[[record]]
smiles_record = "Cc1nc2cc(F)ccc2n1-c1cncc(Nc2ccc(OC(F)F)cc2)n1"
measure = "melting point"
value = "239 to 241 °C"

[[record]]
smiles_record = "CCc1nc2ccc(F)cc2n1-c1cncc(Nc2cccc(OC)c2)n1"
measure = "melting point"
value = "179 to 181 °C"

[[record]]
smiles_record = "NS(=O)(=O)Nc1cc(Nc2ccc(C(F)(F)F)cc2)nc(-c2c(C3CC3)nc3ccc(F)cn23)c1"
measure = "melting point"
value = "158 to 160 °C"

[[record]]
smiles_record = "FC(F)Oc1ccc(Nc2cncc(-c3cccc4nc(C5CCC5)cn34)n2)cc1"
measure = "melting point"
value = "252 to 253 °C"

[[record]]
smiles_record = "N#Cc1cc(Nc2ccc(OC(F)F)c(F)c2)nc(-c2c(C3CC3)nc3ccc(F)cn23)c1"
measure = "melting point"
value = "185 to 186 °C"

[[record]]
smiles_record = "Cc1nc2ccc(F)cn2c1-c1cncc(Nc2cccc(Cl)c2)n1"
measure = "melting point"
value = "272 to 275 °C"

[[record]]
smiles_record = "Cc1nc2ccccn2c1-c1cncc(Nc2ccc(C(F)(F)F)cc2)n1"
measure = "melting point"
value = "180 to 182 °C"

[[record]]
smiles_record = "CCc1nc(C)cn1-c1cncc(Nc2ccc(OC(F)F)cc2)n1"
measure = "melting point"
value = "168 to 169 °C"

[[record]]
smiles_record = "Fc1ccc2nc(C3CC3)c(-c3cncc(Nc4ccc(OC(F)F)c(F)c4)n3)n2c1"
measure = "melting point"
value = "173 to 175 °C"

[[record]]
smiles_record = "Cc1nc2ccc(F)cn2c1-c1cc(C#N)cc(Nc2ccc(C(F)(F)F)cc2)n1"
measure = "melting point"
value = "241 to 243 °C"

[[record]]
smiles_record = "Cc1nn(Cc2ccncc2)c(C)c1-c1cncc(Nc2ccc(C(F)(F)F)cc2)n1"
measure = "melting point"
value = "66 to 67 °C"

